Experiment: binders of probe aFSTL3 on microarray, primary screen, stem cell growth factor project, biochemical, small-molecule microarray, fluorescence 635/667 (AID 1064);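 further: measures binding of the biotinylated anti-FSTL3 antibody to printed compounds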
Details: higher = more signal
Would you please tag the item rule met when its composite z-score is -0.4 or above, and rule not met when it is below?

Completed entries (count: 3):
Does O=C1C=C[C@@H](O)[C@@H]2[C@@H]3C(=O)N(C4CCCCC4)C(=O)[C@@H]3CC[C@@H]12 have a reported composite z-score of at least -0.4? rule met

Does CCN1C(=O)[C@H]2[C@H]3[C@H](O)[C@H](O)CC(=NO[C@H](C)c4cn([C@H](CO)Cc5ccccc5)nn4)[C@@H]3CC[C@H]2C1=O have a reported composite z-score of at least -0.4? rule not met

Does COC(=O)[C@H](C)NC(=O)CC=C[C@@H](C)[C@@H]1C=C[C@H](O)[C@@H](CO)O1 have a reported composite z-score of at least -0.4? rule not met

---
Does COCC#Cc1ccc([C@@H]2N[C@H](C(=O)O)CC[C@H]2C)cc1 have a reported composite z-score of at least -0.4? rule met

Does COc1ccc(COC(=O)NN=C2C[C@@H](O)[C@@H](O)[C@@H]3[C@@H]4C(=O)N(C5CCCCC5)C(=O)[C@@H]4CC[C@@H]23)cc1 have a reported composite z-score of at least -0.4? rule met

Does CO[C@@H](C(C)C)[C@@H](C)C1OC(=O)CC1O (stereo partly drawn) have a reported composite z-score of at least -0.4? rule met

---

Test system: Neuregulin-1 EGF-like domain
Experiment: binders of neuregulin-1 EGF-like domain, primary screen, biochemical, small-molecule microarray, 635 nm fluorescence (AID 1081);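 further: binding of the protein to compounds printed on small-molecule microarray slides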
Details: small-molecule microarray binding, higher = more signal
Categorize each record by its composite z-score using 0 (below 0.4), 1 (0.4 to below 0.9), 2 (0.9 or more)

Class? Entry: CCN(CC)CC(O)CN1CCCCc2nc(C)c(C)cc21 (centres undefined) 2

Class? Entry: O=C1C[C@@H](O)[C@@H](O)[C@@H]2[C@@H]3C(=O)N(c4ccc(F)cc4F)C(=O)[C@@H]3CC[C@H]12 0

Class? Entry: COC(=O)C1=C(C)N(Cc2ccccc2)C2=C3C(=O)OCC[C@@H]3[C@@](O)(C(=O)OC)C(=O)N2[C@@H]1c1ccccc1 0

Class? Entry: CCN1C(=O)[C@H]2[C@H]3[C@H](O)[C@H](O)CC(=NO[C@@H](C)c4cc(-c5c(C)cc(C)cc5C)no4)[C@@H]3CC[C@H]2C1=O 2

Class? Entry: CCN1C(=O)[C@H]2[C@H]3[C@H](O)[C@H](O)CC(=NOC[C@@H](O)[C@H]4O[C@@H]5OC(C)(C)O[C@@H]5[C@H]4O)[C@@H]3CC[C@H]2C1=O 0

Class? Entry: CCOC(=O)NN=C1C[C@@H](O)[C@@H](O)[C@@H]2[C@@H]3C(=O)N(C[C@@H]4CCCO4)C(=O)[C@@H]3CC[C@H]12 0

---

Below: a set of entries, each annotated with reported composite z-score.
System: Neuregulin-1 EGF-like domain
Assay: binders of neuregulin-1 EGF-like domain, primary screen, biochemical, small-molecule microarray, 635 nm fluorescence (AID 1081);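 further: binding of the protein to compounds printed on small-molecule microarray slides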
Conditions: small-molecule microarray binding, higher = more signal
# output: bare number, no unit

Need composite z-score, item CCOC(=O)[C@H](Cc1ccccc1)NC(=O)CCC1CC(OC(=O)NCCc2ccc(F)cc2)CC2(CCCC(COC(=O)NCc3cccc(C(F)(F)F)c3)O2)O1 (some centres not stated) 1.05

Need composite z-score, item CC(CCC(=O)OC[C@H]1O[C@H](C#Cc2ccccc2)C=C[C@@H]1Oc1ccc(C)cc1)=NOC(C)CN1CCCc2nc(C)c(C)cc21 (some centres not stated) 0.684

Need composite z-score, item C[C@@H]1CC[C@H]2C(=O)N3[C@@H](CC[C@@H](C)[C@@H]3c3ccc(Br)cc3)C(=O)N2[C@H]1c1ccc(Br)cc1 0.354

Need composite z-score, item CCc1cc2c(nc1CC)CCN(CCC(C)=NOCC[C@@H]1C=C[C@H](OC(C)=O)[C@@H](COC(C)=O)O1)C2 0.545

Need composite z-score, item O=C1C2=CC[C@H]3C(=O)N(C4CCCCC4)C(=O)[C@H]3[C@H]2[C@H](O)[C@@H]2O[C@H]12 -0.515

Need composite z-score, item COC(=O)[C@H](C)NC(=O)CCC1CC(OC(=O)NCCc2ccc(F)cc2)CC2(CCCC(COC(=O)NCCOc3ccccc3)O2)O1 (some centres not stated) 0.933

Need composite z-score, item CCO[C@H](c1cc(OC)cc([N+](=O)[O-])c1OC)[C@H](C)[C@@H](OC)[C@H](C)C=CCC(=O)OC 0.66

---

Assay: small-molecule microarray binders of probe aLefty2, primary screen, biochemical, biotinylated probe, 635/667 nm fluorescence (AID 1094);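 further: score merges spot fluorescence near 667 nm with spot signal-to-noise ratio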
Details: higher = more signal
Below: a set of entries, each annotated with reported composite z-score.

These solved cases illustrate the format of a correct answer.
Need composite z-score, item CCc1cc2c(nc1CC)CCN(CCC(C)=NOC(C)CN1CCCCc3nc(C)c(C)cc31)C2 (stereo unspecified) 0.0809

Need composite z-score, item CC(C)=NO[C@H](C)c1cn([C@@H]2COC[C@H]2O)nn1 -0.0936

Need composite z-score, item O=C1[C@H]2CCn3c(=O)n(Cc4cc5c(cc4Cl)OCO5)c(=O)n3[C@H]2[C@H](O)[C@@H]2O[C@H]12 -0.255

Read the next record carefully.
Need composite z-score, item COc1ccc(O[C@H]2C=C[C@@H](c3ccccc3)O[C@@H]2COC(=O)CCC(C)=NOC[C@@H](O)COCc2ccco2)cc1 -0.443

---

Biological target: Calmodulin-1 (Homo sapiens) (UniProt P0DP23)
Test: calcium-bound CALM1 binders on microarrays, profiling panel, artefact control for SMM control-protein annotation, biochemical, small-molecule microarray, Cy5-labelled CALM1, plus calcium (AID 1112);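 further: score merges spot fluorescence with signal to noise from triplicate slides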
Settings: Cy5-CALM1 binding fluorescence, higher = more signal
measurement_type: composite z-score
# output: bare number, no unit

These solved cases illustrate the format of a correct answer.
Need composite z-score, item COC(=O)CC=C[C@@H](C)[C@@H](C=NOC[C@@H](C)[C@H](OCc1ccccc1)C(C)C)OC -0.79

Need composite z-score, item C[C@@H]1CC[C@H]2C(=O)N3[C@@H](CC[C@@H](C)[C@@H]3c3ccc(Br)cc3)C(=O)N2[C@H]1c1ccc(Br)cc1 -0.188

Need composite z-score, item CC(C)CON=C1C[C@@H](O)[C@@H](O)[C@@H]2[C@@H]3C(=O)N(C(C)(C)C)C(=O)[C@@H]3CC[C@@H]12 -2.27

Need composite z-score, item O=C1[C@H]2[C@H]3[C@H](O)[C@H](O)CC(=NOC[C@@H](O)COCc4ccco4)[C@@H]3CC[C@H]2C(=O)N1C1CCCCC1 -1.66

Need composite z-score, item CC(C)=CCCC(C)=CCON=C1C[C@@H](O)[C@@H](O)[C@@H]2[C@@H]3C(=O)N(Cc4ccc5c(c4)OCO5)C(=O)[C@@H]3CC[C@H]12 -1.11

---
Need composite z-score, item CC(C)CON=C1C[C@@H](O)[C@@H](O)[C@@H]2[C@@H]3C(=O)N(Cc4ccc5c(c4)OCO5)C(=O)[C@@H]3CC[C@@H]12 -0.311

Need composite z-score, item CC(C)=NOC[C@@H](O)[C@H]1O[C@@H]2OC(C)(C)O[C@@H]2[C@H]1O -0.29

Need composite z-score, item O=C1[C@H]2[C@H]3[C@H](O)[C@H](O)CC(=NO[C@@H]4O[C@H](CO)[C@@H](O)[C@H](O)[C@H]4O)[C@H]3CC[C@H]2C(=O)N1c1ccc(F)cc1F -1.2

Need composite z-score, item CC(C)C(=O)N[C@H]1CCCN1C(=O)C=Cc1ccccc1 -0.306

---

Assay: HepG2 liver cancer cell viability effects, profiling panel, resazurin fluorescence, 24 h, PK04 Diversity Set (AID 1172); further: test concentration not given here
Details: higher = more signal
Below: a set of entries, each annotated with reported z-score.
# output: bare number, no unit

These solved cases illustrate the format of a correct answer.
Need z-score, item CC(=O)OC[C@H]1O[C@H](CC=NOC[C@@H](O)COCc2ccco2)C=C[C@@H]1OC(C)=O -0.13

Need z-score, item CC(C)CON=C1C[C@@H](O)[C@@H](O)[C@@H]2[C@@H]3C(=O)N(Cc4ccc5c(c4)OCO5)C(=O)[C@@H]3CC[C@@H]12 0.344

Need z-score, item CON=C1c2cc(OC)ccc2O[C@H](c2cccc(OC)c2)[C@H]1O 0.291

Need z-score, item COC(=O)CC=C[C@@H](C)[C@@H](C=NOC(C)CN1CCCc2nc(C)c(C)cc21)NS(=O)(=O)c1ccc(C)cc1 (stereo not given in full) -0.566

Need z-score, item C[C@@H]1CC[C@H]2C(=O)OC(CN3C(=O)c4ccccc4C3=O)CN2[C@H]1c1ccc(Br)cc1 (stereo not given in full) 0.462

---
Need z-score, item CO[C@@H](C1CCCCC1)[C@@H](C)[C@H](OCc1cccc(Br)c1)[C@@H](C)CO 0.414

Need z-score, item COC(=O)C1=C(C)N(Cc2ccccc2)C2=C3C(=O)OCC[C@@H]3[C@@](O)(C(=O)OC)C(=O)N2[C@@H]1c1ccccc1 1.11

Need z-score, item CC(=O)OC[C@H]1O[C@H](CC=NO[C@@H](C)c2cn([C@H](CO)Cc3ccccc3)nn2)C=C[C@@H]1OC(C)=O -0.462

Need z-score, item CC(C)=NO[C@@H](C)c1cn([C@H](CO)Cc2ccccc2)nn1 -1.27

Need z-score, item CC(CCC(=O)OC[C@H]1O[C@H](C#Cc2ccccc2)C=C[C@@H]1Oc1ccc(C)cc1)=NOC(C)CN1CCCCc2nc(C)c(C)cc21 (stereo not given in full) 0.172

Need z-score, item CCN1C(=O)[C@H]2[C@H]3[C@H](O)[C@H](O)CC(=NOCC(C)C)[C@H]3CC[C@H]2C1=O -0.259

Need z-score, item O=C1[C@H]2[C@H]3[C@H](O)[C@H](O)CC(=NOCc4ccccc4)[C@H]3CC[C@H]2C(=O)N1C1CCCCC1 -0.483

Need z-score, item CCN1C(=O)[C@H]2[C@H]3[C@H](O)[C@H](O)CC(=NOCC[C@@H]4C=C[C@H](OC(C)=O)[C@@H](COC(C)=O)O4)[C@@H]3CC[C@H]2C1=O -1.02

Need z-score, item CC(CCC(=O)OC[C@H]1O[C@H](C#Cc2ccccc2)C=C[C@@H]1Oc1ccc(C)cc1)=NO[C@@H](C)c1cc(-c2c(C)cc(C)cc2C)no1 -0.53

Need z-score, item C#CCCCON=C1[C@H]2CCn3c(=O)n(Cc4cc5c(cc4Cl)OCO5)c(=O)n3[C@H]2[C@H](O)[C@@H]2O[C@H]12 -0.242
